Numbers sourced from patent US7838498B2.

target: human SGLT1 (Homo sapiens); construct: Full-length human SGLT1 cDNA on pDream2.1 expression vector was obtained from GenScript Corporation; host or cells: COS-7 cells (American Type Culture Collection); assay: Methyl-α-D-[U-14C]glucopyranoside uptake assay, COS-7 cells expressing human SGLT1; type: cell-based; settings: COS-7 cells expressing human SGLT1, 2 h incubation, without human serum (symbols without parentheses)
Sequence (P13866 whole entry): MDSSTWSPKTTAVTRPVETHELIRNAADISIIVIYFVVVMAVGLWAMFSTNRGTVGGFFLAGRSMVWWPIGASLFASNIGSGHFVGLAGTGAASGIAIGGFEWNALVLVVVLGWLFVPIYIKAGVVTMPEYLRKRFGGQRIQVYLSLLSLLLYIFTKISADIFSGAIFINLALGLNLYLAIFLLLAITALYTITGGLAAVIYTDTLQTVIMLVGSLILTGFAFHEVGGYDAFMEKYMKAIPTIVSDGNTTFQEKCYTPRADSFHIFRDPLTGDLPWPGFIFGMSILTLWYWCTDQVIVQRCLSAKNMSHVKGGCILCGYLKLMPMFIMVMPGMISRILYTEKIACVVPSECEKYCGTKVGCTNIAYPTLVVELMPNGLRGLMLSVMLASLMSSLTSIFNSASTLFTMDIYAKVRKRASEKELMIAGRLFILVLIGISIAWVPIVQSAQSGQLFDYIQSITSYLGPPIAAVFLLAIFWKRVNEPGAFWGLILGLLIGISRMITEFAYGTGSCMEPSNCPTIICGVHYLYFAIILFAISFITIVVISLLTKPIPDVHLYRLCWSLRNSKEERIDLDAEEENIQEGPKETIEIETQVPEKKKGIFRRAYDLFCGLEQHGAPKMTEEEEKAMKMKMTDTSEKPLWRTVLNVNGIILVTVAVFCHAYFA
pIC50: −log10 of the molar value.
Listed below: pIC50 values for each entry.
assay.metric: pIC50

* CCc1ccc(Cc2cc([C@@H]3O[C@H](CO)[C@@H](O)[C@H](O)[C@H]3O)c(COCC(C)(F)F)cc2Cl)cc1 | < 5.00
* CCc1ccc(Cc2cc([C@@H]3O[C@H](CO)[C@@H](O)[C@H](O)[C@H]3O)c(COCC(C)O)cc2Cl)cc1 (stereo partly shown) | < 5.00
* CCc1ccc(Cc2cc([C@@H]3O[C@H](CO)[C@@H](O)[C@H](O)[C@H]3O)c(CCOCCO)cc2Cl)cc1 | 5.00 to 6.00
* CCc1ccc(Cc2cc([C@@H]3O[C@H](CO)[C@@H](O)[C@H](O)[C@H]3O)c(CCOCCF)cc2Cl)cc1 | 5.00 to 6.00
